Reported pIC50 values, LNCaP cells.
Numbers only, as −log10 of the molar value.

molecule="CC1=C(/C=C/C(=O)/C=C/c2ccc(C(F)(F)F)cc2)C(C)(C)CCC1O (racemic) [Compound B26]" measurement_label=pIC50 result_value=5.52
molecule="CC1=C(/C=C/C(=O)/C=C/c2cc(C(F)(F)F)ccc2F)C(C)(C)CCC1O (racemic) [Compound B36]" measurement_label=pIC50 result_value=5.77
molecule="COc1ccc(/C=C/C(=O)/C=C/C2=C(C)CCCC2(C)C)cc1O [Compound B2]" measurement_label=pIC50 result_value=5.00
molecule="COc1ccc(/C=C/C(=O)/C=C/C2=C(C)CCCC2(C)C)cc1OC [Compound B3]" measurement_label=pIC50 result_value=5.02

Then there is this molecule:
Input: Find pIC50 for CC1=C(/C=C/C(=O)/C=C/c2cc(C(F)(F)F)ccc2C(F)(F)F)C(C)(C)CCC1O (racemic) [Compound B27] on LNCaP cells and write it down.
Output: 5.49
